test system: SNB-78 CNS; assay: NCI tumour cell line growth inhibition, 48 h
# maps each entry to its TGI

**Q:** Input Cc1cc(C)nc(NS(=O)(=O)c2ccc(NC(=O)c3cccc4c(Nc5ccc(S(N)(=O)=O)cc5)c5ccccc5nc34)cc2)n1 , output reported TGI.
**A:** 52.3 µM

**Q:** Supply reported TGI belonging to this compound: COC(=O)/C=C1\CCC(C)O1 (configuration not stated)
**A:** > 100 µM

**Q:** Report TGI for COc1cc2c(OC)cc1CSCc1sc(C)c(c1Br)CSC2
**A:** > 100 µM

**Q:** Given the compound CN[C@@H](C)[C@@H](NC)c1ccccc1 , write its reported TGI.
**A:** > 100 µM

**Q:** Indicate the recorded TGI value for this compound: O=C(O)CC(NC(=O)CP(=O)(O)O)C(=O)O (configuration not stated)
**A:** > 10000 µM

**Q:** Identify measured TGI corresponding to C/C(CC(=O)Nc1cccc(Cl)c1C)=N\NC(=O)c1ccncc1
**A:** > 100 µM

**Q:** Please indicate TGI recorded for CN1C(=O)CSC1=S
**A:** > 100 µM
